Ref: patent US10508109B2

Test system: CCD-18Co
TEST_NAME: Cell-based assay, anti-proliferative activity (Cell Counting Kit-8, 72 hours)
TEST_CONDITIONS: Homo sapiens; CCD-18Co cells, Cell Counting Kit-8, 72 hours; read-out: IC50 (μM) CCD-18Co
Structures can show the parent of a compound that is named as a salt.
Below: a set of entries, each annotated with reported IC50.
Give the number; µM is assumed, so skip it.

[
  {
    "COMPOUND": "COc1cc(OCCCN(C)C)c(-c2cn3ccc(N4CCN(S(C)(=O)=O)CC4)cc3n2)cc1Cl",
    "MEASURED_TARGET": "CCD-18Co",
    "IC50 [µM]": 7.5
  },
  {
    "COMPOUND": "COc1cc(OC)c(-c2cn3ccc(N4CCN(CCNC(=O)OC(C)(C)C)CC4)cc3n2)cc1Cl [Example 28, dihydrochloride]",
    "MEASURED_TARGET": "CCD-18Co",
    "IC50 [µM]": 4
  },
  {
    "COMPOUND": "COc1cc(OC)c(-c2cn3ccc(N4CCN(S(C)(=O)=O)CC4)cc3n2)cc1Cl",
    "MEASURED_TARGET": "CCD-18Co",
    "IC50 [µM]": 2.8
  },
  {
    "COMPOUND": "COc1cc(OC)c(-c2cn3ccc(N4CCN(CCN5CCCC5)CC4)cc3n2)cc1Cl",
    "MEASURED_TARGET": "CCD-18Co",
    "IC50 [µM]": 2.7
  },
  {
    "COMPOUND": "COc1cc(OC)c(-c2cn3ccc(N4CCC(CCNC(=O)OC(C)(C)C)CC4)nc3n2)cc1Cl",
    "MEASURED_TARGET": "CCD-18Co",
    "IC50 [µM]": 4.3
  }
]

May I ask what IC50 has been recorded for COc1cc(OC)c(-c2cn3ccc(N4CCN(CCF)CC4)cc3n2)cc1Cl ?
8.9

And what about the compound COc1cc(OC)c(-c2cn3ccc(N4CCC(NC(=O)OC(C)(C)C)CC4)nc3n2)cc1Cl ?
3.8

Same question, CCCS(=O)(=O)NC1CCN(c2ccn3cc(-c4cc(Cl)c(OC)cc4OC)nc3c2)CC1 this time
2

Another compound to look at: COc1cc(OC)c(-c2cn3ccc(N4CCC(CNS(=O)(=O)C5CC5)CC4)cc3n2)cc1Cl
4.8

// query: COCCCN1CC=C(c2ccn3cc(-c4cc(Cl)c(OC)cc4OC)nc3c2)CC1
11

How about this compound: COc1cc(OCCCN(C)C)c(-c2cn3ccc(N4CCNCC4)cc3n2)cc1Cl
2.5

Could you do the same for CCS(=O)(=O)N1CCN(c2ccn3cc(-c4cc(Cl)c(OC)cc4OCCCN(C)C)nc3c2)CC1 , please?
3.9

* * *

MEASURED_TARGET: SUV39H2 (Homo sapiens (Human), UniProt Q9H5I1)
Sequence (Q9H5I1 whole entry): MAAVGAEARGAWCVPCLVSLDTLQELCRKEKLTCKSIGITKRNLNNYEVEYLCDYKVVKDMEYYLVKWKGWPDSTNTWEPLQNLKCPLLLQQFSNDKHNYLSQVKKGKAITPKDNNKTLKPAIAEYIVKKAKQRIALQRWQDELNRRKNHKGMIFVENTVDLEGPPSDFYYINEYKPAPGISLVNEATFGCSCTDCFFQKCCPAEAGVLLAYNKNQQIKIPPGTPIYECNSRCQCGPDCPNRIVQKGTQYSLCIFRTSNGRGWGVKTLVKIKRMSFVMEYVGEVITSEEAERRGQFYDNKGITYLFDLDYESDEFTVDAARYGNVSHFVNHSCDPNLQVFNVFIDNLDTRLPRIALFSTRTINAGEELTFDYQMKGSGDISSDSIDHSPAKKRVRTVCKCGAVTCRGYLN
TEST_CONDITIONS: read-out: IC50 (μM) Suv 39H2 assay; enzyme assay
Where a name gives a salt, the structure may show the parent alone.
Recorded IC50, one value per entry.
Entry rule: numbers only, all in µM.

[
  {
    "MOLECULE": "COc1cc(OC(C)C)c(-c2cn3ccc(N4CCCC4)cc3n2)cc1Br [Example 53, hydrobromide]",
    "MEASURED_TARGET": "SUV39H2 (Homo sapiens (Human), UniProt Q9H5I1)",
    "REPORTED": 0.0181
  },
  {
    "MOLECULE": "COc1cc(OC)c(-c2cn3ccc(N4CCN(CCC#N)CC4)cc3n2)cc1Cl",
    "MEASURED_TARGET": "SUV39H2 (Homo sapiens (Human), UniProt Q9H5I1)",
    "REPORTED": 0.0142
  },
  {
    "MOLECULE": "COc1cc(OCCN(C)C)c(-c2cn3ccc(N4CCOCC4)cc3n2)cc1Cl",
    "MEASURED_TARGET": "SUV39H2 (Homo sapiens (Human), UniProt Q9H5I1)",
    "REPORTED": 0.0372
  }
]

// switching to the query molecule
Requested field: IC50. Item: COc1cc(OC)c(-c2cn3ccc(C4=CCN(CCO)CC4)cc3n2)cc1Cl
0.0576
